# Tested on: SR leukemia
# TEST DETAILS: NCI-60 one-dose screen, 48 h
# CONDITION DETAILS: 10 µM unless noted
About 83,000 compounds went through this panel and 20% of them were active in at least one assay; those are over-represented in the sample as a whole. The source made the active and inactive calls. The calls were made as follows: active = growth percent below 10; inactive = the rest.
Pick one: yes (1) = active, no (0) = inactive

query: What outcome does the record of this test show for CO[C@H]1CC[C@@]2(C)C(=CC[C@H]3[C@@H]4C[C@H](O)C[C@@]4(C)CC[C@@H]32)C1 ?
result: no (0)

query: What outcome does the record of this test show for CCN(CC)c1ccc(/C=C/c2ccc3cc(C)ccc3[n+]2CC)cc1 ?
result: yes (1)

query: What outcome does the record of this test show for Cc1cc(C)nc(SCC(=O)Nc2cccc(N=Cc3ccccc3O)c2)n1 ?
result: no (0)

query: What outcome does the record of this test show for CSc1cccc([N+](=O)[O-])c1 ?
result: no (0)

query: What outcome does the record of this test show for CCOC(=O)c1cnc2ccc(Br)cc2c1Nc1cccc(S(N)(=O)=O)c1 ?
result: no (0)

query: What outcome does the record of this test show for O=C(NCCO)c1cccnc1 ?
result: no (0)

query: What outcome does the record of this test show for COc1ccc(-c2cc(-c3ccccc3)nc(NCCNc3ccnc4cc(Cl)ccc34)n2)cc1 ?
result: yes (1)

query: What outcome does the record of this test show for CC1(C)C(=NO)C(C)(C)C1=NO ?
result: no (0)

query: What outcome does the record of this test show for O=C1NC(=O)C(Cc2ccc(OCc3ccc(-c4cc(F)c(F)c(F)c4)cc3)cc2)S1 (stereo unspecified) ?
result: no (0)

query: What outcome does the record of this test show for O=[N+]([O-])c1cc([N+](=O)[O-])c(NN=C(c2ccc(O)cc2)c2ccc(O)cc2)cc1Cl ?
result: no (0)

query: What outcome does the record of this test show for CCCCNC(=O)NS(=O)(=O)Cc1ccccc1 ?
result: no (0)

query: What outcome does the record of this test show for Nc1cc(Cl)cc2cccnc12 ?
result: no (0)

query: What outcome does the record of this test show for Cc1cnc([C@]23CC[C@@H](C)[C@H](C)[C@H]2C2=CC[C@@H]4[C@@]5(C)Cc6c([nH]c7ccccc67)C(C)(C)[C@@H]5CC[C@@]4(C)[C@]2(C)CC3)o1 ?
result: no (0)

query: What outcome does the record of this test show for CCOc1ccccc1/C=N\Nc1ccc(S(=O)(=O)c2ccc(N/N=C/c3ccccc3OCC)cc2)cc1 ?
result: no (0)

query: What outcome does the record of this test show for C=C(C)[C@@H]1CC[C@]2(C)[C@H](CC=C3[C@@H]4[C@@H](C)[C@H](C)CC[C@]4(C(N)=O)CC[C@]32C)[C@@]1(C)CCC#N ?
result: no (0)

query: What outcome does the record of this test show for CN(C)CCOc1ccc(/C(=C(/CCCl)c2ccccc2)c2ccccc2)cc1 ?
result: yes (1)

query: What outcome does the record of this test show for CC1(C)S[C@@H]2[C@H](NC(=O)[C@H](C(=O)O)c3cccs3)C(=O)N2[C@H]1C(=O)O ?
result: no (0)

query: What outcome does the record of this test show for C[C@H]1[C@H](C)CC[C@]2(C(=O)O)CC[C@]3(C)C(=CC[C@@H]4[C@@]5(C)C/C(=C/c6cccnc6)[C@H](O)C(C)(C)[C@@H]5CC[C@]43C)[C@H]12 ?
result: no (0)

query: What outcome does the record of this test show for Cc1cc(C)c(O)c(CNCCCCCCNCc2cc(C)cc(C)c2O)c1 ?
result: yes (1)

query: What outcome does the record of this test show for CNc1cc(C(=O)O)nc(NC)n1 ?
result: no (0)

query: What outcome does the record of this test show for CNC(=O)c1cc(Oc2cccc3nc(NC(=O)Nc4cc(C(F)(F)F)cc(C(F)(F)F)c4)ccc23)ccn1 ?
result: no (0)

query: What outcome does the record of this test show for Cc1ccc(-c2cc(-c3ccc(C)cc3)nc(NCCNc3ccnc4cc(Cl)ccc34)n2)cc1 ?
result: yes (1)

query: What outcome does the record of this test show for Cc1ccc(NCCN2CCCCC2)c2c(=O)c3ccccc3sc12 ?
result: no (0)

query: What outcome does the record of this test show for Nc1cc(N)c(N=Nc2ccc(S(=O)(=O)O)cc2)cc1N=Nc1ccc(-c2ccc(N=Nc3ccc(O)c(C(=O)O)c3)cc2)cc1 ?
result: no (0)

query: What outcome does the record of this test show for Nc1nc(N)c2c(n1)NC(c1ccc(F)cc1)C1CCc3ccccc3C1=N2 (stereo unspecified) ?
result: yes (1)

query: What outcome does the record of this test show for N#Cc1c(Cl)nc(SCC2CO2)nc1-c1ccccc1 (stereo unspecified) ?
result: no (0)

Reference source for all entries: PubChem BioAssay (NCI)
